target of assay: SIRT1 (Homo sapiens)
Sequence (Q96EB6 1-747): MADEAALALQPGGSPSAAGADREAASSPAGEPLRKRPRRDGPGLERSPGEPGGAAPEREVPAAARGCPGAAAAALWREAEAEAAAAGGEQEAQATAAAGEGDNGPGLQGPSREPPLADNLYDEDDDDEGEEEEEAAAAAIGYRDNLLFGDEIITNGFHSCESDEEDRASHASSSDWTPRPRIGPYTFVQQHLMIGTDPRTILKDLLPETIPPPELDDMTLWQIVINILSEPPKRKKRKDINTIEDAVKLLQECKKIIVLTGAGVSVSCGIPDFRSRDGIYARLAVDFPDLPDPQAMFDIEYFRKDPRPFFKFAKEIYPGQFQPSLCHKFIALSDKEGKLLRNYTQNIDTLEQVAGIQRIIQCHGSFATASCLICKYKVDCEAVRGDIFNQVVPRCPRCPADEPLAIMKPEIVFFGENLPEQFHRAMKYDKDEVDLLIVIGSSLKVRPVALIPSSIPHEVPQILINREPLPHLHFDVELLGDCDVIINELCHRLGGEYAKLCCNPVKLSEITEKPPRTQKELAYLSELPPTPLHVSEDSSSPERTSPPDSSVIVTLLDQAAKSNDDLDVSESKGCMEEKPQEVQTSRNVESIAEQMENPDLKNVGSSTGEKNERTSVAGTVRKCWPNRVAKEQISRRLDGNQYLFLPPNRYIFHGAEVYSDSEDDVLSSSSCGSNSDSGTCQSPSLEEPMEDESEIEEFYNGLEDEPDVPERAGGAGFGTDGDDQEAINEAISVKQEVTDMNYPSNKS
assay overview: Mass spectrometry based assay to identify modulators of SIRT1 activity (deacetylation of p53-based acetylated peptide)
Type: biochemical
study conditions: 10 nM SIRT1, 0.5 μM peptide substrate, 120 μM βNAD+, 25 minutes at 25° C.
measurement name: % Fold Act. (percent maximum fold activation)

- O=C(Nc1ccccn1)c1cccc2c(=O)[nH]c(-c3ccccc3C(F)F)nc12: A (Fold activation>200%)
- O=C(Nc1cccc2c(=O)[nH]c(-c3ccccc3OC(F)(F)F)nc12)c1cnccn1: A (Fold activation>200%)
- CCc1nnc(NC(=O)c2cccc3c(=O)n(C)c(-c4cccc(C(F)(F)F)c4)nc23)s1: A (Fold activation>200%)
- O=C(NC1CCOC1=O)c1cccc2c(=O)cc(-c3cccc(C(F)(F)F)c3)[nH]c12 (centres unmarked): B (Fold Activation<200%)
- Cn1c(-c2cccc(C(F)(F)F)c2)nc2c(C(=O)Nc3ncc(CN4CCOCC4)s3)cccc2c1=O: A (Fold activation>200%)

Here are 6 compounds. What values of % Fold Act. (percent maximum fold activation) were reported for them?
1. Cn1cc(-c2nc3c(C(=O)Nc4ccccn4)cccc3c(=O)n2C)cn1
2. Cn1c(-c2ccccc2Cl)nc2c(C(=O)Nc3ccccn3)cccc2c1=O
3. Cn1c(-c2ccccc2C(F)F)nc2c(NC(=O)c3cnccn3)cccc2c1=O
4. Cn1nccc1-c1nc2c(C(=O)Nc3ccccn3)cccc2c(=O)n1C
5. Cn1c(-c2cccc(C(F)(F)F)c2)nc2c(C(=O)Nc3ccnc(CN4CCOCC4)n3)cccc2c1=O
6. Cn1c(-c2cnccn2)nc2c(C(=O)Nc3ccccn3)cccc2c1=O

1. B (Fold Activation<200%)
2. B (Fold Activation<200%)
3. A (Fold activation>200%)
4. B (Fold Activation<200%)
5. A (Fold activation>200%)
6. B (Fold Activation<200%)

Here are 3 compounds. What values of % Fold Act. (percent maximum fold activation) were reported for them?
1. O=C(Nc1cccc2c(=O)[nH]c(-c3cccc(C(F)(F)F)c3)nc12)c1cnccn1
2. Cn1c(-c2ccccc2)nc2c(C(=O)Nc3ccccn3)cccc2c1=O
3. Cn1c(-c2ccccc2N2CCOCC2)nc2c(C(=O)Nc3ccccn3)cccc2c1=O

1. B (Fold Activation<200%)
2. B (Fold Activation<200%)
3. B (Fold Activation<200%)

Here are 5 compounds. What values of % Fold Act. (percent maximum fold activation) were reported for them?
1. O=C(Nc1cccc2c(=O)[nH]c(-c3cccc(C(F)F)c3)nc12)c1cnccn1
2. Cn1c(-c2cccc(C(F)(F)F)c2)nc2c(C(=O)Nc3cccc(CN4CCCC4)n3)cccc2c1=O
3. Cn1c(-c2cccc(C(F)(F)F)c2)nc2c(C(=O)Nc3nncs3)cccc2c1=O
4. Cn1c(-c2cccc(N3CCOCC3)c2)nc2c(C(=O)Nc3ccccn3)cccc2c1=O
5. O=C(Nc1cccnc1)c1cccc2c(=O)cc(-c3ccccc3C(F)(F)F)[nH]c12

1. B (Fold Activation<200%)
2. A (Fold activation>200%)
3. A (Fold activation>200%)
4. A (Fold activation>200%)
5. A (Fold activation>200%)

Here are 2 compounds. What values of % Fold Act. (percent maximum fold activation) were reported for them?
1. Cn1c(-c2cccc(C(F)(F)F)c2)nc2c(NC(=O)c3cccnc3)cccc2c1=O
2. CN1CCCC1C(=O)Nc1cccc2c(=O)n(C)c(-c3cccc(C(F)(F)F)c3)nc12 (centres unmarked)

1: A (Fold activation>200%); 2: B (Fold Activation<200%)

Here are 2 compounds. What values of % Fold Act. (percent maximum fold activation) were reported for them?
1. O=C(Nc1cnccn1)c1cccc2c(=O)cc(-c3cccc(Cl)c3)[nH]c12
2. Cn1c(-c2cccc(C(F)(F)F)c2)nc2c(C(=O)Nc3ccc(CN4CC[C@H](F)C4)cn3)cccc2c1=O

["B (Fold Activation<200%)", "A (Fold activation>200%)"]

Here are 4 compounds. What values of % Fold Act. (percent maximum fold activation) were reported for them?
1. Cn1c(-c2cccc(C(F)(F)F)c2)nc2c(C(=O)Nc3cccc(CN4CC[C@H](F)C4)n3)cccc2c1=O
2. O=C(Nc1cccc2c(=O)cc(-c3cccc(C(F)(F)F)c3)[nH]c12)c1cscn1
3. Cn1ccc(-c2nc3c(NC(=O)c4cnccn4)cccc3c(=O)n2C)n1
4. O=C(Nc1cnccn1)c1cccc2c(=O)cc(-c3cccc(C(F)(F)F)c3)[nH]c12

1: A (Fold activation>200%); 2: A (Fold activation>200%); 3: B (Fold Activation<200%); 4: A (Fold activation>200%)

Here are 5 compounds. What values of % Fold Act. (percent maximum fold activation) were reported for them?
1. O=C(Nc1cccc2c(=O)cc(-c3ccccc3C(F)(F)F)[nH]c12)c1cscn1
2. Cn1c(-c2cccc(C(F)(F)F)c2)nc2c(C(=O)Nc3ccc(OCC(O)CO)cc3)cccc2c1=O (centres unmarked)
3. Cn1c(-c2cccc(C(F)(F)F)c2)nc2c(NS(=O)(=O)c3cccnc3)cccc2c1=O
4. O=C(Nc1cccnc1)c1cccc2c(=O)cc(-c3cccc(OC(F)F)c3)[nH]c12
5. O=C(Nc1cccc2c(=O)cc(-c3cccc(C(F)(F)F)c3)[nH]c12)c1cccc(CN2CCOCC2)n1

["A (Fold activation>200%)", "A (Fold activation>200%)", "B (Fold Activation<200%)", "A (Fold activation>200%)", "A (Fold activation>200%)"]
